B1: Proto-oncogene vav, residues 782 to 842; numbered along this chain, P15498 (parent)
chain: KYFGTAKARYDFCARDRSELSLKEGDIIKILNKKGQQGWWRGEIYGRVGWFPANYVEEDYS

variants of: B1; test: abundance fitness (aPCA) (normalised: wild type 0, dead -1); higher = more abundant; growth selection in yeast, the domain comes from the species named; conditions: Homo sapiens
Attribute Measured: abundance fitness

INSERT INTO measurements (variant_name, measured) VALUES
  ('D16S', 0),
  ('Y45E', 0.103),
  ('G38D', -0.265),
  ('S21V', -0.895),
  ('V48H', -0.405),
  ('L20Q', -1.05),
  ('I28S', -0.792),
  ('S61D', -0.208),
  ('V56S', -0.919),
  ('Q36W', -0.156),
  ('C13A', -0.063),
  ('K33E', -0.46),
  ('E24W', -0.92),
  ('N32Q', 0.009),
  ('F3D', -0.274),
  ('D26A', -0.493),
  ('A53T', -0.227),
  ('Y2N', 0.228),
  ('E43Y', -0.682),
  ('D16V', -0.308),
  ('W40F', -0.303),
  ('K29Q', -0.265),
  ('I27V', 0.065),
  ('E58F', -0.297),
  ('R17L', 0.035),
  ('E57T', 0.025),
  ('S18L', -0.368),
  ('V48D', -0.499),
  ('R15C', -0.444),
  ('A8P', -0.606),
  ('A8Q', -0.956),
  ('R15T', -0.181),
  ('N54I', -0.376),
  ('V56M', -1.02),
  ('K34C', -0.117),
  ('E43C', -0.343),
  ('A14C', -0.83),
  ('S18A', 0.064),
  ('A53I', -0.314),
  ('N32G', -0.075),
  ('S21L', -0.653),
  ('L22W', -0.888),
  ('W50N', -0.329),
  ('G35Y', -0.643),
  ('Q37M', -0.105),
  ('D11M', -0.35),
  ('S21I', -0.378),
  ('E19C', -0.502),
  ('E58S', -0.362),
  ('Y45D', 0.147),
  ('R41I', -0.463),
  ('W40G', -0.707),
  ('R41G', -0.691),
  ('Y45L', 0.036),
  ('E58P', -0.169),
  ('K33P', -0.41),
  ('G42P', -0.916),
  ('R47H', -0.226),
  ('R47F', -0.788),
  ('Y55C', 0.093),
  ('E58R', -0.336),
  ('Y45T', -0.021),
  ('G4R', -0.183),
  ('F51P', -0.733),
  ('F51I', -0.691),
  ('I30V', 0.006),
  ('I27G', -0.704),
  ('R17F', -0.315),
  ('C13P', -0.178),
  ('G35C', -0.165),
  ('P52D', -0.929),
  ('I28M', -0.593),
  ('A14L', -1.03),
  ('R41H', -0.113),
  ('D11F', -0.901),
  ('E24C', -0.091),
  ('L20R', -0.883),
  ('G38I', -0.911),
  ('E57S', -0.059),
  ('G25W', -0.498),
  ('D59T', 0.008),
  ('E43K', -0.155),
  ('C13F', -0.006),
  ('I27R', -0.21),
  ('P52L', -0.89),
  ('K29T', -0.103),
  ('G49K', -0.92),
  ('Y60P', -0.183),
  ('Q36L', -0.045),
  ('G38L', -0.55),
  ('E24I', -0.124);
